- System: NCI-H226 lung
- assay_info: NCI tumour cell line growth inhibition, 48 h; in the data active = GI50 below about 0.43 µM; inactive = the rest
Classes to choose from: class 1 (active), class 0 (inactive)

These solved cases illustrate the format of a correct answer.
NS(=O)(=O)c1ccc(N2N=C(c3cccs3)CC2c2ccccc2O)cc1 (stereo unspecified) ... class 0
COc1ccc2c(c1OC)C(=O)O[C@@H]2[C@H]1c2c(c(Br)c3c(c2OC)OCO3)CCN1C ... class 0
O=c1[nH]nc(-c2ccccc2)c2c(-c3ccccc3)onc12 ... class 0

Task: // return assay outcome for Cc1ccc(S(=O)(=O)Nc2cc(Sc3ccccc3)c(O)c3ccccc23)cc1
Result: class 0

Task: // return assay outcome for COC(=O)Nc1nc2ccc(S(=O)(=O)c3ccc(NC(=O)Nc4cc(C(F)(F)F)ccc4F)cc3)cc2[nH]1
Result: class 0

Task: // return assay outcome for C=C1C(=O)O[C@H]2[C@H]1CC/C(CNC(=O)/C=C/c1ccc(Cl)cc1Cl)=C\CC[C@@]1(C)O[C@@H]21
Result: class 0

Task: // return assay outcome for CC(=O)n1c(-c2ccc(Cl)c(Cl)c2)cn(-c2ccc(Cl)cc2)c1=O
Result: class 0

Task: // return assay outcome for O=C1COCCN1c1ccc(NCc2cn(C(=O)c3ccc(Cl)cc3)c3ccccc23)cc1
Result: class 1

###

Parameter TGI: see the listing below.
- Tested on: SK-MEL-2 melanoma
- assay_info: NCI tumour cell line growth inhibition, 48 h
Where a SMILES comes first, the peptide text is derived from it.

Some solved entries appear below for comparison.
CCOC(=O)c1ccc(Nc2cnc3ccc(C(F)(F)F)cc3n2)cc1 ... 33.8 µM
C=C1C(=O)O[C@H]2[C@H]1CC/C(CNC(=O)/C=C/c1ccc(Cl)cc1Cl)=C\CC[C@@]1(C)O[C@@H]21 ... 3.63 µM
O=C(O)c1cc(=O)c2cc(C(=O)c3cccs3)c(Cl)c(Cl)c2o1 ... > 100 µM
Cc1ccc([N+](=O)[O-])c2c(NCCC[N+](C)(C)[O-])ccnc12 ... > 100 µM
CCSC(=O)C1(C)OC2CCCCC2C1=O (stereo not given) ... > 100 µM
Cc1ccc(N2C(=O)C(=O)N(/N=C3\C(=O)Nc4ccccc43)C2=S)cc1 ... > 100 µM

Task: Any idea what TGI was measured for CCOC(=O)C1Oc2ccc([N+](=O)[O-])cc2C1(C)O (stereo not given) ?
Result: > 100 µM

Task: Any idea what TGI was measured for Cc1ncc(CO)c(C=NCCCCCCN=Cc2c(CO)cnc(C)c2O)c1O ?
Result: > 100 µM

Task: Any idea what TGI was measured for O=C(O)CN=c1c2ccccc2n(O)c2ccccc12 ?
Result: > 100 µM

Task: Any idea what TGI was measured for O=C1NC(c2ccccc2)N=C2Oc3ccccc3C=C12 (stereo not given) ?
Result: > 100 µM

Task: Any idea what TGI was measured for COC1C(OC(N)=O)C(O)C(Oc2ccc3c(O)c(NC(=O)c4ccc(O)c(CC=C(C)C)c4)c(=O)oc3c2C)OC1(C)C (stereo not given) ?
Result: > 100 µM

Task: Any idea what TGI was measured for Cc1cc(C(O)CNC(C)CCn2cnc3c2c(=O)n(C)c(=O)n3C)ccc1O (stereo not given) ?
Result: > 100 µM

Task: Any idea what TGI was measured for CNc1ncc2cc(Oc3ccc(F)cc3F)c(=O)n(C)c2n1 ?
Result: > 25 µM

Task: Any idea what TGI was measured for CC(=O)NC(CO)C(=O)NC(Cc1ccc(O)cc1)C(=O)NCC(N)=O (stereo not drawn) (Ac-Ser-Tyr-Gly-NH2; configuration not given here) ?
Result: > 100 µM

Task: Any idea what TGI was measured for O=S(=O)(N/N=C/c1ccc(Cl)cc1Cl)c1ccccc1 ?
Result: > 100 µM

###

- Test system: HOP-92 NSCLC
- assay_info: NCI tumour cell line growth inhibition, 48 h
measurement_name: TGI

Task: Any idea what TGI was measured for CNc1ncnc2c1cnn2Cc1cn(CCCCO)nn1 ?
Result: > 100 µM

Task: Any idea what TGI was measured for CCOC(=O)c1cn(CC)c2cc3c(cc2c1=O)SCS3 ?
Result: > 100 µM

Task: Any idea what TGI was measured for Cc1ccc(Nc2cn(COCc3ccccc3)c(=O)[nH]c2=O)cc1 ?
Result: > 100 µM

Task: Any idea what TGI was measured for O=C(CN1C(=O)S/C(=C\C(Cl)=C\c2ccccc2)C1=O)NCCCn1ccnc1 ?
Result: 4.46 µM

Task: Any idea what TGI was measured for Cc1nc(Nc2nc3ccccc3[nH]2)[nH]c(=O)c1CCO ?
Result: > 100 µM

###

- System: SN12C renal
- assay_info: NCI tumour cell line growth inhibition, 48 h
Parameter TGI: see the listing below.

Some solved entries appear below for comparison.
Cc1ccc(-n2cc(-c3ccc(Cl)cc3)c(C#N)c2N)cc1 ... 28 µM
COC(=O)C1(C)OC(C)=NC1(C(=O)OC)C(=O)OC (configuration not stated) ... > 100 µM
Cc1nc2nn(C)cc2c(=O)n1/N=C/c1ccccc1 ... > 100 µM
O=c1[nH]cnc2c1ncn2CCCCO ... > 100 µM

Task: Find the measured TGI: item COc1cc(-c2oc3c(OC)c(O)cc(O)c3c(=O)c2OC)ccc1O , target or system SN12C renal.
Result: > 100 µM

Task: Find the measured TGI: item CSc1nc(-c2ccc(Cl)cc2)c(C#N)c(=O)[nH]1 , target or system SN12C renal.
Result: > 100 µM

Task: Find the measured TGI: item CCCN(CCC)C(=O)c1c(Cl)c2cccnc2n2c(C)cnc12 , target or system SN12C renal.
Result: > 100 µM

Task: Find the measured TGI: item CC(Nc1n[nH]c(=O)c2c1nnn2Cc1ccccc1)c1ccccc1 (configuration not stated) , target or system SN12C renal.
Result: > 100 µM

Task: Find the measured TGI: item CC(C)=CCc1cc(C2COc3cc4c(c(O)c3C2=O)C=CC(C)(C)O4)c(O)cc1O (configuration not stated) , target or system SN12C renal.
Result: 26.3 µM

###

- System: TK-10 renal
- assay_info: NCI tumour cell line growth inhibition, 48 h
Parameter TGI: see the listing below.

Task: Find the measured TGI: item O=c1oc2c(ccc3c(O)cccc32)c2c1CCCC2 , target or system TK-10 renal.
Result: > 100 µM

Task: Find the measured TGI: item O=S(=O)(N/N=C/c1ccc(Cl)cc1Cl)c1ccccc1 , target or system TK-10 renal.
Result: > 100 µM

Task: Find the measured TGI: item CCc1c2c(nc3ccc(OCc4ccc(B5OC(C)(C)C(C)(C)O5)cc4)cc13)-c1cc3c(c(=O)n1C2)COC(=O)[C@]3(O)CC , target or system TK-10 renal.
Result: > 100 µM

Task: Find the measured TGI: item COc1cc(/C=C\c2ccc(Cl)cc2)cc(OC)c1OC , target or system TK-10 renal.
Result: > 100 µM

Task: Find the measured TGI: item O=c1[nH]nc(-c2ccccc2)c2c(-c3ccccc3)onc12 , target or system TK-10 renal.
Result: > 100 µM

Task: Find the measured TGI: item Oc1ccc(O)c2c1C1(Cl)C(Cl)=C(Cl)C2(Cl)C1(Cl)Cl , target or system TK-10 renal.
Result: 27.7 µM

###

- System: RXF 393 renal
- assay_info: NCI tumour cell line growth inhibition, 48 h
measurement_name: TGI (µM)
Give the value in µM but do not write µM after it.

Some solved entries appear below for comparison.
S=C(Nc1cccc(C2(N3CCCCC3)CCCCC2)c1)Nc1cccc(C2(N3CCCCC3)CCCCC2)c1 ... 29.7
CC(=O)NC1C(OCc2ccccc2)OC(CO)C(O)C1OCC(=O)N1CCCC1C(=O)NC(CCC(=O)NCCCCCNc1c2ccccc2nc2cccc([N+](=O)[O-])c12)C(N)=O (stereo not drawn) ... 0.0253
CN(C)CC1=Nc2cccc3cccc(c23)N1 ... 31.9
COC(=O)CCC1(O)C=CC(=O)C=C1 ... 61.5
Oc1ccc(O)c2c1C1(Cl)C(Cl)=C(Cl)C2(Cl)C1(Cl)Cl ... 11.2
C/C([O-])=C(/c1nc(-c2ccc([N+](=O)[O-])o2)no1)[n+]1cc(C)ccc1C ... 43.2
Cc1cc(-c2ccc(C(=O)C(c3ccccc3)(c3ccccc3)c3ccccc3)[nH]2)on1 ... 9.46
CC1(C)CC2(C)ON=C(c3ccccc3)N2c2ccccc2N1 (stereo not drawn) ... 54.5
CCC(=O)c1c(C(F)(F)F)n([O-])c2ccccc2[n+]1=O ... 10.2
O=C1C(NS(=O)(=O)c2ccccc2)=C(N(Cc2ccccc2)Cc2ccccc2)C(=O)c2ccccc21 ... 67.8

Task: Any idea what TGI was measured for [O-][n+]1c2cc(CN3CCOCC3)c(CN3CCOCC3)cc2[n+]([O-])c2c(O)cccc21 ?
Result: 5.11

Task: Any idea what TGI was measured for O=C1/C(=C/c2ccc(Cl)cc2)Sc2scc(-c3cccc([N+](=O)[O-])c3)[n+]21 ?
Result: 7.97
